TARGET_UNDER_TEST: Phosphoglycerate mutase 1 (Homo sapiens, UniProt P18669)
Sequence (P18669 whole entry): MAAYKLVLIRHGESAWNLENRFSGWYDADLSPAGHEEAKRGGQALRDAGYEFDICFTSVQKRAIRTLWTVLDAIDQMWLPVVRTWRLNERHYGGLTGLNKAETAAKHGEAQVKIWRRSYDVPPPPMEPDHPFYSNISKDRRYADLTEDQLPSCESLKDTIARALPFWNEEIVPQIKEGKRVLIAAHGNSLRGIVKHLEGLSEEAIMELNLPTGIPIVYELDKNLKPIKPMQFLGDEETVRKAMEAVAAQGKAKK
PROCEDURE_TEXT: Inhibition of human recombinant PGAM1 by measuring decrease in OD by enzyme based assay
# IC50 listing for each entry below

{"columns": ["MOLECULE_SMILES", "IC50"],
 "data": [
  ["O=C1c2ccccc2C(=O)c2c1cc(NS(=O)(=O)c1ccccc1)c(O)c2O", "1.5 µM"],
  ["O=C1c2ccccc2C(=O)c2c1cc(NS(=O)(=O)N1CCOCC1)c(O)c2O", "> 10 µM"]
]}

For the next question, use this molecule.
**Query** # input molecule: `CN1CCN(c2ccc(S(=O)(=O)Nc3cc4c(c(O)c3O)C(=O)c3ccccc3C4=O)cc2)CC1` ; wanted: its IC50
**Result** > 10 µM
